Parameter: solubility at 2 h. Scope: all listed entries.
PROTOCOL_TEXT: Solubility of peptide compounds in buffer formulations (Table 5)
Format: physicochemical
MEASUREMENT_PARAMETERS: Buffer pH 1.1 (head; method: 50 mM HCl pH 1.2), 2 h agitation, target 1 mg/ml; read-out: Solubility, Buffer pH 1.1
Numbered stars: 1 amine (or outer) side, 2 acyl side, 3 side chain; on linkers, the order of the positions; unused ones are H or OH. Bridge positions count the residues as written; N and C are the ends. Square brackets hold non-standard residues; d marks the D form. Peptide text beside a SMILES is read from it. * marks the point of attachment. Lys(Me,(CH2)4NMe(CH2)5CO) = CN(CCCCCC(=O)[*:3])CCCCN(C)CCCC[C@H](N[*:1])C(=O)[*:2]; Trp(7-Me) = Cc1cccc2c(C[C@H](N)C(=O)O)c[nH]c12; Trp(1-Me) = Cn1cc(C[C@H](N)C(=O)O)c2ccccc21; NH(2-(3-pyridyl)ethyl) = c1cncc(CCN*)c1; αMeLys(Me2) = CN(C)CCCC[C@](C)(N)C(=O)O; 2Nal = N[C@@H](Cc1ccc2ccccc2c1)C(=O)O; 3Pal = N[C@@H](Cc1cccnc1)C(=O)O; Aun = NCCCCCCCCCCC(=O)O; Thp = NC1(C(=O)O)CCOCC1; Me2NCH2CH2 = CN(C)CC*; Aib = CC(C)(N)C(=O)O; Sar = CNCC(=O)O

Here is how some compounds turned out for solubility at 2 h.
CN(C)CCOc1ccc(C[C@@H]2NC(=O)C3(CCOCC3)NC(=O)[C@H](CCC(N)=O)NC(=O)[C@H](Cc3cn(C)c4ccccc34)NC(=O)CCCCCN(C)CCCCN(C)CCCC[C@@H](C(=O)N[C@@H](CC(N)=O)C(=O)N[C@@H](Cc3cccnc3)C(=O)N(C)CC(N)=O)NC(=O)C(C)(C)NC(=O)[C@H](Cc3ccc4ccccc4c3)NC2=O)cc1 [compound 33] ([Trp(1-Me)]Q[Thp]Y(Me2NCH2CH2)[2Nal][Aib][Lys(Me,(CH2)4NMe(CH2)5CO)]N[3Pal][Sar]-NH2; lactam N-7) :: ≥ 1000 µg/mL
CC(=O)NCCCC[C@@H]1NC(=O)[C@H](Cc2cn(C)c3ccccc23)NC(=O)CCCCCN(C)CCCCN(C)CCCC[C@@H](C(=O)NCC(=O)NCCc2cccnc2)NC(=O)C(C)(C)NC(=O)[C@H](Cc2ccc3ccccc3c2)NC(=O)[C@H](Cc2ccc(OCCN(C)C)cc2)NC(=O)C2(CCOCC2)NC1=O [compound 23] ([Trp(1-Me)]K(Ac)[Thp]Y(Me2NCH2CH2)[2Nal][Aib][Lys(Me,(CH2)4NMe(CH2)5CO)]G-{NH(2-(3-pyridyl)ethyl)}; lactam N-7) :: ≥ 970 µg/mL
CC(=O)NCCCC[C@@H]1NC(=O)[C@H](Cc2c[nH]c3c(C)cccc23)NC(=O)CCCCCN(C)CCCCN(C)CCCC[C@@H](C(=O)N[C@@H](CC(N)=O)C(=O)N[C@@H](Cc2cccnc2)C(=O)N(C)CC(N)=O)NC(=O)[C@](C)(CCCCN(C)C)NC(=O)[C@H](Cc2ccc3ccccc3c2)NC(=O)[C@H](Cc2ccc(OCCN(C)C)cc2)NC(=O)C2(CCOCC2)NC1=O [compound 34] ([Trp(7-Me)]K(Ac)[Thp]Y(Me2NCH2CH2)[2Nal][αMeLys(Me2)][Lys(Me,(CH2)4NMe(CH2)5CO)]N[3Pal][Sar]-NH2; lactam N-7) :: ≥ 1200 µg/mL
CN(C)CCOc1ccc(C[C@@H]2NC(=O)C3(CCOCC3)NC(=O)[C@H](CCC(N)=O)NC(=O)[C@H](Cc3cn(C)c4ccccc34)NC(=O)CCCCCN(C)CCCCN(C)CCCC[C@@H](C(=O)NCC(=O)NCCc3cccnc3)NC(=O)C(C)(C)NC(=O)[C@H](Cc3ccc4ccccc4c3)NC2=O)cc1 [compound 22] ([Trp(1-Me)]Q[Thp]Y(Me2NCH2CH2)[2Nal][Aib][Lys(Me,(CH2)4NMe(CH2)5CO)]G-{NH(2-(3-pyridyl)ethyl)}; lactam N-7) :: ≥ 1020 µg/mL

Asked: Provide only the value of recorded solubility at 2 h for Cc1cccc2c(C[C@@H]3NC(=O)CCCCCCCCCCNC(=O)CC[C@@H](C(=O)N[C@@H](CC(N)=O)C(=O)N[C@@H](Cc4cccnc4)C(=O)N(C)CC(N)=O)NC(=O)[C@](C)(CCCCN(C)C)NC(=O)[C@H](Cc4ccc5ccccc5c4)NC(=O)[C@H](Cc4ccc(OCCN(C)C)cc4)NC(=O)C4(CCOCC4)NC(=O)[C@H](CCC(N)=O)NC3=O)c[nH]c12 [compound 20] ([Aun][Trp(7-Me)]Q[Thp]Y(Me2NCH2CH2)[2Nal][αMeLys(Me2)]EN[3Pal][Sar]-NH2; lactam N-8)
Given back: ≥ 850 µg/mL

* * *

PROTOCOL_TEXT: Protease stability in simulated intestinal fluids (FaSSIF) (Table 7)
Format: in vitro ADME
MEASUREMENT_PARAMETERS: fassif with pancreatin, 60 min, 37° C., read-out: Remaining percentage of peptide compound, FaSSIF 60 (min)
Numbered stars: 1 amine (or outer) side, 2 acyl side, 3 side chain; on linkers, the order of the positions; unused ones are H or OH. Bridge positions count the residues as written; N and C are the ends. Square brackets hold non-standard residues; d marks the D form. Peptide text beside a SMILES is read from it. * marks the point of attachment. Trp(7-Me) = Cc1cccc2c(C[C@H](N)C(=O)O)c[nH]c12; Sebacoyl = O=C(CCCCCCCCC(=O)[*:2])[*:1]; 2Nal = N[C@@H](Cc1ccc2ccccc2c1)C(=O)O; 3Pal = N[C@@H](Cc1cccnc1)C(=O)O; Thp = NC1(C(=O)O)CCOCC1; Me2NCH2CH2 = CN(C)CC*; Aib = CC(C)(N)C(=O)O; Sar = CNCC(=O)O
PROPERTY_MEASURED: remaining at 1 h, 1 µM (%)
Please respond with the number in % and leave the unit unwritten.

Asked: Give the reported value of remaining at 1 h, 1 µM for this record: Cc1cccc2c(C[C@@H]3NC(=O)CCCCCCCCC(=O)NCCCC[C@@H](C(=O)N[C@@H](CC(N)=O)C(=O)N[C@@H](Cc4cccnc4)C(=O)N(C)CC(N)=O)NC(=O)C(C)(C)NC(=O)[C@H](Cc4ccc5ccccc5c4)NC(=O)[C@H](Cc4ccc(OCCN(C)C)cc4)NC(=O)C4(CCOCC4)NC(=O)[C@H](CCC(N)=O)NC3=O)c[nH]c12 [compound 11] ([Trp(7-Me)]Q[Thp]Y(Me2NCH2CH2)[2Nal][Aib]KN[3Pal][Sar]-NH2; linker N-7 via Sebacoyl)
Given back: 74

* * *

MEASUREMENT_TARGET: human IL-23R (Homo sapiens)
Sequence (Q5VWK5 24-353 limits assumed): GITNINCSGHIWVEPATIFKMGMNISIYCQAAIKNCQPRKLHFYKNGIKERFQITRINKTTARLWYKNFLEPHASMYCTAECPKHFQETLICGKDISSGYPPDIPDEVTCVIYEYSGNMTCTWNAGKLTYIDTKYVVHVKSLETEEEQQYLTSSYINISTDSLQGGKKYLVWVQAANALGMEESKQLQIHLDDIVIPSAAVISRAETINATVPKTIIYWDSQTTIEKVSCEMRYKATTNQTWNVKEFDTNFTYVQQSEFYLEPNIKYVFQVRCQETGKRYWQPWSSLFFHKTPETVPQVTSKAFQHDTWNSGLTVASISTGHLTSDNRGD
Numbered stars: 1 amine (or outer) side, 2 acyl side, 3 side chain; on linkers, the order of the positions; unused ones are H or OH. Bridge positions count the residues as written; N and C are the ends. Square brackets hold non-standard residues; d marks the D form. Peptide text beside a SMILES is read from it. * marks the point of attachment. Lys(Me,(CH2)4NMe(CH2)4CO) = CN(CCCCC(=O)[*:3])CCCCN(C)CCCC[C@H](N[*:1])C(=O)[*:2]; Trp(7-Me) = Cc1cccc2c(C[C@H](N)C(=O)O)c[nH]c12; NH(2-(3-pyridyl)ethyl) = c1cncc(CCN*)c1; Sebacoyl = O=C(CCCCCCCCC(=O)[*:2])[*:1]; 2Nal = N[C@@H](Cc1ccc2ccccc2c1)C(=O)O; 3Pal = N[C@@H](Cc1cccnc1)C(=O)O; Thp = NC1(C(=O)O)CCOCC1; Me2NCH2CH2 = CN(C)CC*; Aib = CC(C)(N)C(=O)O; Sar = CNCC(=O)O
PROPERTY_MEASURED: IC50 (pM)
The reply should contain only the number, in pM.

Cc1cccc2c(C[C@@H]3NC(=O)CCCCN(C)CCCCN(C)CCCC[C@@H](C(=O)NCC(=O)NCCc4cccnc4)NC(=O)C(C)(C)NC(=O)[C@H](Cc4ccc5ccccc5c4)NC(=O)[C@H](Cc4ccc(OCCN(C)C)cc4)NC(=O)C4(CCOCC4)NC(=O)[C@H](CCC(N)=O)NC3=O)c[nH]c12 [compound 24] ([Trp(7-Me)]Q[Thp]Y(Me2NCH2CH2)[2Nal][Aib][Lys(Me,(CH2)4NMe(CH2)4CO)]G-{NH(2-(3-pyridyl)ethyl)}; lactam N-7) :: 840

Next molecule, IC50 to be filled in.
Asked: Tell me IC50 of Cc1cccc2c(C[C@@H]3NC(=O)CCCCCCCCC(=O)NCCCC[C@@H](C(=O)N[C@@H](CC(N)=O)C(=O)N[C@@H](Cc4cccnc4)C(=O)N(C)CC(N)=O)NC(=O)C(C)(C)NC(=O)[C@H](Cc4ccc5ccccc5c4)NC(=O)[C@H](Cc4ccc(OCCN(C)C)cc4)NC(=O)C4(CCOCC4)NC(=O)[C@H](CCC(N)=O)NC3=O)c[nH]c12 [compound 11] ([Trp(7-Me)]Q[Thp]Y(Me2NCH2CH2)[2Nal][Aib]KN[3Pal][Sar]-NH2; linker N-7 via Sebacoyl) when tested on human IL-23R (Homo sapiens).
Given back: 620
